Hello, the source for this data is patent US5578619A, in case you need it.

Would you mind telling me the reported pIC50 of each entry?
Target: LTB4 Receptor (Homo sapiens)
Construct: Neutrophils were purified from venous blood of normal human donors; endogenous in cells
Sequence (Q15722 whole entry): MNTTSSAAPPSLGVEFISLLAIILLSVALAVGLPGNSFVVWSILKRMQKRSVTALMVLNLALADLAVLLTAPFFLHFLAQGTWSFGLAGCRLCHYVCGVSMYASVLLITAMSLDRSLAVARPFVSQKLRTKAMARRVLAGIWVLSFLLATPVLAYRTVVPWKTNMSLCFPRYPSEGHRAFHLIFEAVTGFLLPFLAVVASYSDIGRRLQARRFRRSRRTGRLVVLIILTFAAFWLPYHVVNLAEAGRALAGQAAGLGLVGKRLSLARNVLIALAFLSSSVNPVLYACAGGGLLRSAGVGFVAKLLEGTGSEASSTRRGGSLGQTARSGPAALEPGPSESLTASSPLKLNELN
Test: LTB4 Receptor Binding Assay
Settings: human neutrophils, 0.6×10^-9 M (3H)LTB4, 0° C., 45 minutes
Description: Neutrophils were purified from venous blood of normal human donors using standard techniques of dextran sedimentation, centrifugation on Ficoll-paque® (Pharmacia) or Histopaque® sterile solution (Sigma) and hypotonic lysis of erythrocytes (Boyum, A., Isolation of Leukocytes From Human Blood: Further Observations. Scand. J. Lab. Clin. Invest., 21 (Suppl. 97): 31, 1968). […]
Give bare numbers, as −log10 of the molar value.

Okay, here is my list. What is pIC50 for each of these?
1. CCCc1c(OCCCOc2ccc(-c3cscn3)c(OC)c2CC2CC2)ccc2c1OC(C(=O)NS(=O)(=O)c1ccccc1)CC2 (centres unmarked)
2. CCCc1c(OCCCOc2ccc(-c3cscn3)c(OC)c2CC2CC2)ccc2c1OC(CCC(=O)NS(=O)(=O)c1ccccc1)CC2 (centres unmarked)

8.26
8.37
